System under test: D(2) dopamine receptor (Homo sapiens)
Test details: HTS Assay for Positive Allosteric Modulators of the Human D2 Dopamine Receptor: Primary Screen for Potentiators; further: 0% is about no effect
Setup conditions: HEK293 T-REx D2, calcium flux, EC20 dopamine potentiation; at 10 µM
In all, about 340,000 compounds went through this assay and about 1,200 (0.35%) were called active.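 How the source made its calls: active means potentiation over 3 SD above the plate norm (cut at about 30% in these data); inactive means the rest.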 This is one part of a sample in which actives are shown more often than they occur.
Bench note: report the call from True = active, False = inactive

**Query** Hi, sorry to bother you, what did the test record for COc1cccc(CSc2nc3nc(C)cc(C)n3n2)c1 ?
**Result** False

**Query** Hi, sorry to bother you, what did the test record for CC(=O)Nc1ccc(S(=O)(=O)Nc2cccc(NC(=O)C(C)(C)C)c2)cc1 ?
**Result** False

**Query** Hi, sorry to bother you, what did the test record for COC(=O)COc1ccc(S(=O)(=O)N2CCOCC2)cc1 ?
**Result** False

**Query** Hi, sorry to bother you, what did the test record for COc1ccc(C(C)=O)cc1CSc1nc2nc(C)cc(C)n2n1 ?
**Result** True

**Query** Hi, sorry to bother you, what did the test record for COc1cc(OC)cc(C(=O)Nc2cc3nn(-c4ccccc4)nc3cc2Cl)c1 ?
**Result** False

**Query** Hi, sorry to bother you, what did the test record for Cc1ccc(-c2nn(CCC(=O)Nc3ccc(Cl)c(Cl)c3)c(=O)c3ccccc23)cc1 ?
**Result** False

**Query** Hi, sorry to bother you, what did the test record for Nc1ncc(S(=O)(=O)Nc2ccc(OC(F)(F)F)cc2)cn1 ?
**Result** False

**Query** Hi, sorry to bother you, what did the test record for O=C(COC(=O)/C=C/c1ccc(S(=O)(=O)N2CCCCCC2)cc1)NCc1ccccc1Cl ?
**Result** False

**Query** Hi, sorry to bother you, what did the test record for CC(=O)NS(=O)(=O)c1ccccc1 ?
**Result** False

**Query** Hi, sorry to bother you, what did the test record for Cc1cc(C)n2nc(SCC(N)=O)nc2n1 ?
**Result** False

**Query** Hi, sorry to bother you, what did the test record for COc1ccc(CNC(=O)COC(=O)/C=C/c2ccc(S(=O)(=O)N3CCOCC3)cc2)cc1 ?
**Result** True

====

System under test: D(2) dopamine receptor (Homo sapiens)
Test details: HTS Assay for Positive Allosteric Modulators of the Human D2 Dopamine Receptor: Primary Screen for Potentiators; further: 0% is about no effect
Setup conditions: HEK293 T-REx D2, calcium flux, EC20 dopamine potentiation; at 10 µM; hits give high values
Among all 340,000 compounds or so, about 1,200 (0.35%) were called active. Shown is part of a subset that was picked to be rich in actives.
Parameter measured: potentiation (%)
Express the result in % but write the number alone.

**Query** Specify potentiation for Clc1ccc(CSc2nncn3c2cc2occc23)cc1 and stop.
**Result** 0.301

**Query** Specify potentiation for COc1ccccc1N1CCN(c2ncnc3onc(-c4ccc(F)cc4)c23)CC1 and stop.
**Result** -4.24

**Query** Specify potentiation for CCOC(=O)c1ccccc1NC(=O)CCc1c(C)nc2c(c1C)c(=O)n(C)c(=O)n2C and stop.
**Result** -0.581

**Query** Specify potentiation for COc1ccccc1N1CCN(c2ncnc3sc(C)c(-c4ccccc4)c23)CC1 and stop.
**Result** 37.8

**Query** Specify potentiation for CN(Cc1ccccc1)S(=O)(=O)c1ccc(F)c(C(=O)Nc2cccc(Cl)c2Cl)c1 and stop.
**Result** -2.84

====

Record form. Attribute: potentiation. Fill in for each entry.
System under test: D(2) dopamine receptor (Homo sapiens) (UniProt P14416)
Sequence (P14416 whole entry, looked up): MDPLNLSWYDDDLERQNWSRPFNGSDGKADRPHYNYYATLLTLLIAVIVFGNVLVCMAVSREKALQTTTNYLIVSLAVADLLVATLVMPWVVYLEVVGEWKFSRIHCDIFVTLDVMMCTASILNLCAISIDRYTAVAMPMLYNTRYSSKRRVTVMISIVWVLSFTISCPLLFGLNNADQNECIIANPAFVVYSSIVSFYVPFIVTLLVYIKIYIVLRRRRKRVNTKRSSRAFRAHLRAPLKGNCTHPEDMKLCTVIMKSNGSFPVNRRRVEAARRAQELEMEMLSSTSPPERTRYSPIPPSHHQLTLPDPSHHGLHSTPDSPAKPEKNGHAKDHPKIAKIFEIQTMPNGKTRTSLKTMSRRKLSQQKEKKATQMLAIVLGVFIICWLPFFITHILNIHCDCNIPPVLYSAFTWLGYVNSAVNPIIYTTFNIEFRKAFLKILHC
Test details: HTS Assay for Positive Allosteric Modulators of the Human D2 Dopamine Receptor: Primary Screen for Potentiators; further: 0% is about no effect
Setup conditions: HEK293 T-REx D2, calcium flux, EC20 dopamine potentiation; at 10 µM; hits give high values
About 1,200 (0.35%) of roughly 340,000 compounds were called active. This is one part of a sample in which actives are shown more often than they occur.

**Query** Specify potentiation for Cc1c(C)c2ccc(OCC(=O)N3CCN(c4cccc(Cl)c4)CC3)cc2oc1=O and stop.
**Result** -6.58% (inactive)

**Query** Specify potentiation for COc1cc(CNC(=O)c2cc3n(n2)CCCN(Cc2cccc(F)c2)C3=O)cc(OC)c1OC and stop.
**Result** 7.44% (inactive)

**Query** Specify potentiation for CCN1CCN(C(c2ccc(C)cc2)c2c(O)cc(C)n(Cc3ccco3)c2=O)CC1 (stereo not given) and stop.
**Result** 6.89% (inactive)

**Query** Specify potentiation for Nc1nc(NCC2CCCO2)nc(Nc2ccccc2F)c1[N+](=O)[O-] (stereo not given) and stop.
**Result** 31.9% (active)

**Query** Specify potentiation for O=C(COc1ccc(Cl)cc1)N1CCN(c2cccc(C(F)(F)F)c2)CC1 and stop.
**Result** 35.5% (active)

====

System under test: D(2) dopamine receptor (Homo sapiens) (UniProt P14416)
Test details: HTS Assay for Positive Allosteric Modulators of the Human D2 Dopamine Receptor: Primary Screen for Potentiators; further: 0% is about no effect
Setup conditions: HEK293 T-REx D2, calcium flux, EC20 dopamine potentiation; at 10 µM; hits give high values
Out of some 340,000 compounds screened, about 1,200 (0.35%) were called active. The entries come from a sample that favours actives as a whole.
Record form. Attribute: potentiation. Fill in for each entry.
Express the result in % but write the number alone.

**Query** Specify potentiation for COc1cc(Cl)c(C)cc1NC(=O)CN1CCCCCC1 and stop.
**Result** -1.62

**Query** Specify potentiation for Cc1cc(F)ccc1NS(=O)(=O)c1ccc(-n2cccn2)cc1 and stop.
**Result** -0.96

**Query** Specify potentiation for Cc1cc(C)cc(-n2c(SCC(=O)NCC3CCCO3)nc3c([nH]c4ccccc43)c2=O)c1 (stereo unspecified) and stop.
**Result** -6.86

**Query** Specify potentiation for CN(C)CCCn1c(-c2ccc(Cl)cc2)csc1=Nc1ccccc1 and stop.
**Result** -16.7

**Query** Specify potentiation for CCc1ccc(CNC(=O)c2ccc(CS(=O)c3ccc(Br)cc3)o2)cc1 (stereo unspecified) and stop.
**Result** 3.07

**Query** Specify potentiation for Cc1nnc(NCc2ccccc2)c2c1nnn2Cc1ccc(F)cc1 and stop.
**Result** -11.5
